Tested on: MCF7
assay-overview: NCI tumour cell line growth inhibition, 48 h
The source made the active and inactive calls. Cut-off read from the data, not from the text of the source: active = GI50 up to about 1.1 µM and inactive = higher.
readout: GI50

compound	result
O=C(N[C@H]1c2ccsc2/C(=N/O)[C@H]1O)C(F)(F)F	> 100 µM (inactive)
CC(C)NC(=O)OCc1c(COC(=O)NC(C)C)c(-c2cc[n+](COC(=O)C(C)(C)C)cc2)n2c1CCC2	> 100 µM (inactive)
CCOC(=O)C1(C(=O)OCC)C[C@]23OCCC(=O)[C@H]2[C@H]2C(=O)OC(C)(C)O[C@]23C1	> 100 µM (inactive)
O=S1(=O)c2ccccc2Oc2ccc(C(/C=N/O)=N/O)cc21	26.5 µM (inactive)
C#CCOC(=O)C(N)CCSC (stereo not given)	> 100 µM (inactive)
C1=C(c2ccccc2)SC=C(c2ccccc2)S1	16.9 µM (inactive)
O=C(O)[C@@]1(Cc2ccc(O)cc2)C[C@@H]2Cc3ccccc3N2N1	> 100 µM (inactive)
CCOC(=O)/C(=C\NCC(OCC)OCC)c1nc2ccccc2[nH]1	30.1 µM (inactive)
CN(C)c1ccc(/C=C2\N=C(c3ccccc3)N(/N=C3\C(=O)Nc4ccccc43)C2=O)cc1	35.8 µM (inactive)
O=C1NC2=NN=C(c3ccc(Br)cc3)CN2NC12c1ccccc1-c1ccccc12	73.3 µM (inactive)
CCOC(=O)c1ccc(N2C(=S)N(C(=O)c3ccccc3)C(=N/c3ccccc3)/C2=N\c2ccccc2)cc1	55.3 µM (inactive)
CC1C(=O)C23OC[C@@]1(C)C1(O)CC[C@@H](C)[C@]21CC3=O (stereo not given in full)	> 100 µM (inactive)
Clc1nc2n(c1/C=C/c1cccs1)CCS2	30.8 µM (inactive)
Cc1ccc(N(C)S(=O)(=O)c2ccccc2[N+](=O)[O-])cc1	49 µM (inactive)
n1onc2c1NC1Nc3nonc3NC1N2 (stereo not given)	> 100 µM (inactive)
CCCC#CC(O)(C(=O)OC1CCN(C)CC1)C1CCCCC1 (stereo not given)	> 100 µM (inactive)
CC[C@@]1(C[C@H]2C[C@@]3(C(=O)OC)c4[nH]c5ccccc5c4CCN3C2=O)COC2(CCCCC2)O1	25.5 µM (inactive)
O=C(Nc1ccccc1)O/N=C(/CBr)c1ccccc1	16.7 µM (inactive)
O=c1c2cc(I)ccc2nc(SCc2nncs2)n1Cc1ccccc1	35.6 µM (inactive)
CC1(C)[C@H]2Cc3cc(-c4cc5c(cn4)[C@@H]4C[C@H]([C@@H]5[C@@H]5c6cc(-c7cc8c(cn7)[C@@H]7C[C@H](C8)C7(C)C)ncc6[C@@H]6C[C@H]5C6(C)C)C4(C)C)ncc3[C@@H]1C2	> 100 µM (inactive)

* * *

Test system: UO-31
assay-overview: NCI tumour cell line growth inhibition, 48 h
Calls of active or inactive are those of the source. Rule as the data show it: active = GI50 up to about 1.1 µM and inactive = higher.
readout: GI50

compound	target-desc	result
CCOC1=C2N=C(Cc3ccccc3F)N=C2C(=O)c2ccccc21	UO-31	> 100 µM (inactive)
COc1cc2cc(C(=O)N3CC(CCl)c4ccc([N+](=O)[O-])cc43)[nH]c2c(OC)c1OC (centres undefined)	UO-31	> 100 µM (inactive)
CC(=O)O/C=C1/C[C@H]2[C@@H]3CCC4CC(C(C)=O)CC[C@]4(C)[C@H]3CC[C@]2(C)C1=O (some centres undefined)	UO-31	> 100 µM (inactive)
CC(NNC(=O)c1ccncc1)c1ccc(F)cc1 (centres undefined)	UO-31	> 100 µM (inactive)
CC(C)NC1CCCCC2c3ccccc3C12O (centres undefined)	UO-31	> 100 µM (inactive)
O=C(CCCCCCCCC(=O)OCCCn1cc(C(=O)NC(=O)OCc2ccccc2)c(=O)[nH]c1=O)OCCCn1cc(C(=O)NC(=O)OCc2ccccc2)c(=O)[nH]c1=O	UO-31	> 100 µM (inactive)
COC(=O)C1CCC(=S)N1C(=O)OCc1ccccc1 (centres undefined)	UO-31	95.7 µM (inactive)
COC1=CC(c2ccc(Br)[nH]2)=N/C1=C/NCC(C)C	UO-31	2.06 µM (inactive)
Cc1nc2c(=S)[nH]ncc2[nH]1	UO-31	> 100 µM (inactive)
C#CC(O)(c1nc2ccccc2s1)c1nc2ccccc2s1	UO-31	15 µM (inactive)
CCCCC[C@@H]1CCCC2NC(CCCCCO[Si](c3ccccc3)(c3ccccc3)C(C)(C)C)CCC21 (some centres undefined)	UO-31	13.4 µM (inactive)
COc1ccc(Oc2cccc(C3C4C(=O)N(c5ccc(C)c(Cl)c5)C(=O)C4ON3C(C(N)=O)c3ccccc3)c2)cc1 (centres undefined)	UO-31	29.6 µM (inactive)
CC(C)OP(=O)(OC(C)C)c1ncn(-c2ccc([N+](=O)[O-])cc2)n1	UO-31	> 100 µM (inactive)
COc1ccc(C2SCC(=O)N2NC(=O)C(C)Oc2ccccc2C)cc1 (centres undefined)	UO-31	72.1 µM (inactive)
O=C(NCCCCCCCCNC(=O)Nc1cccc2ccccc12)Nc1cccc2ccccc12	UO-31	21.4 µM (inactive)
CN(C)CC/C(=N\Nc1ccc([N+](=O)[O-])cc1)c1ccccc1	UO-31	2.1 µM (inactive)
Cc1c(C)c(C)c(CSC(=N)N)c(C)c1C	UO-31	6.52 µM (inactive)
O=C1N[C@@H]2O[C@H](CNC(=O)c3cc(Br)c[nH]3)C[C@]2(O)N1.O=C1N[C@H]2O[C@H](CNC(=O)c3cc(Br)c[nH]3)C[C@@]2(O)N1	UO-31	> 100 µM (inactive)
CC(C)(C)CC(C)(C)c1cc2c(O)c(c1)Cc1cc(C(C)(C)CC(C)(C)C)cc(c1O)Cc1cc(C(C)(C)CC(C)(C)C)cc(c1O)Cc1cc(C(C)(C)CC(C)(C)C)cc(c1O)Cc1cc(C(C)(C)CC(C)(C)C)cc(c1O)Cc1cc(C(C)(C)CC(C)(C)C)cc(c1O)C2	UO-31	> 100 µM (inactive)

* * *

System: RPMI-8226
assay-overview: NCI tumour cell line growth inhibition, 48 h
Active and inactive are the calls of the source. Cut-off read from the data, not from the text of the source: active = GI50 up to about 1.1 µM and inactive = higher.

compound	GI50
CC(C)(C)n1c(=O)n2n(c1=O)Cc1cccc3cccc(c13)C2	14 µM (inactive)
COc1cc(C2S/C(=C/c3ccccc3)C(=O)N2c2ccccn2)cc(OC)c1OC (configuration not stated)	7.53 µM (inactive)
Cc1ccc2c3c1O[C@H]1c4[nH]c5ccccc5c4C[C@@]4(O)[C@@H](C2)N(C)CC[C@]314	14.1 µM (inactive)
CC1(C)[C@H]2Cc3cc(-c4cc5c(cn4)[C@@H]4C[C@H]([C@@H]5[C@@H]5c6cc(-c7cc8c(cn7)[C@@H]7C[C@H](C8)C7(C)C)ncc6[C@@H]6C[C@H]5C6(C)C)C4(C)C)ncc3[C@@H]1C2	> 100 µM (inactive)
CS(=O)(=O)Nc1ccc2c(c1)oc(=O)c1ccccc12	> 100 µM (inactive)
Clc1nc(NC23CC4CC(CC(C4)C2)C3)nc(NC23CC4CC(CC(C4)C2)C3)n1	19.1 µM (inactive)
CCOC(=O)CCC(NC(=O)c1ccc(Nc2nc3ccccc3n3cccc23)cc1)C(=O)OCC (configuration not stated)	23.1 µM (inactive)
Cc1cc(C)nc(NS(=O)(=O)c2ccc(Nc3c4ccccc4nc4c(C(=O)Nc5ccc(S(=O)(=O)Nc6cc(C)on6)cc5)ccc(Cl)c34)cc2)n1	20.6 µM (inactive)
O=C1[C@H]2ON(c3ccccc3)C(c3cccc([N+](=O)[O-])c3)[C@H]2C(=O)N1c1ccc(Cc2ccc(N3C(=O)[C@@H]4ON(c5ccccc5)C(c5cccc([N+](=O)[O-])c5)[C@@H]4C3=O)cc2)cc1 (some centres not stated)	> 100 µM (inactive)
N#CCCN(c1ccc(/C=N/c2cccc([N+](=O)[O-])c2)cc1)S(=O)(=O)c1ccccc1	> 100 µM (inactive)
CS(=O)(=O)Sc1ccc(Cl)cc1	10.9 µM (inactive)
O=C(O)CC(NC(=O)C(F)(F)F)C(=O)NC1Cc2ccccc2OC1=O (configuration not stated)	> 100 µM (inactive)
CC(=O)Oc1ccc(C2COc3cc(OC(C)=O)c(OC(C)=O)cc3C2)cc1 (configuration not stated)	14.9 µM (inactive)
c1ccc(Nc2nnc(-c3nsc4ccccc34)o2)cc1	> 100 µM (inactive)
CC(C)OP(=O)(OC(C)C)c1ncn(-c2ccc([N+](=O)[O-])cc2)n1	> 100 µM (inactive)
Cn1c(-c2ccccc2)cc(-c2ccsc2)c1-c1ccsc1	> 100 µM (inactive)
Oc1ccc2ccccc2c1CN(Cc1c(O)ccc2ccccc12)C1CCCCC1	25.1 µM (inactive)

* * *

Test system: DLD-1
assay-overview: NCI tumour cell line growth inhibition, 48 h
The source made the active and inactive calls. Rule as the data show it: active = GI50 up to about 1.1 µM and inactive = higher.
Quick list: GI50 per entry.

compound	GI50
CCOC(=O)NC(=O)c1cn(CCN2CCN(C(=O)CCCCCCCCCCC(=O)N3CCN(CCn4cc(C(=O)NC(=O)OCC)c(=O)[nH]c4=O)CC3)CC2)c(=O)[nH]c1=O	> 100 µM (inactive)
O=C1CCC(c2nc3ccccc3o2)C(=O)N1 (stereo unspecified)	> 100 µM (inactive)
COc1cc(/C=C/C(=O)c2sc(NNC(C)=O)nc2C)ccc1O	> 100 µM (inactive)
On1c(-c2ccccc2)c(-c2c(-c3ccccc3)n(O)c3ccccc23)c2ccccc21	54.6 µM (inactive)
O=C1C2=C(C(c3ccccc3)=C1c1ccccc1)c1ccccc1C1(c3ccccc3)C2=C(O)C(c2ccccc2)=C1c1ccccc1 (stereo unspecified)	> 100 µM (inactive)
CCN(CC)c1ccc(/N=C2\C=C(Cl)C(=O)c3ncccc32)c(C)c1	4.06 µM (inactive)
CCCCCC/C=C/CCCCCCCc1cccc(O)c1C(=O)O	43.6 µM (inactive)
CCCCCCCCCCn1cccc1/C=C/c1ccc(/C=C/c2cccn2CCCCCCCCCC)cc1	> 100 µM (inactive)
CCCCc1c2c(nc3c1CCC/C3=C\c1ccccc1)C(=O)C(CN(C)C)CC2 (stereo unspecified)	17.1 µM (inactive)
C/C(=C\c1ccccc1)C(=O)CCN1CCOCC1	17.3 µM (inactive)
C=CCc1cc(OC)c2c(c1)C(O)CC(c1ccc(OC)c(OC)c1)O2 (stereo unspecified)	> 100 µM (inactive)
Nc1nc(Cl)c2ncn(CCCC(c3ccccc3)P(=O)(O)O)c2n1 (stereo unspecified)	> 100 µM (inactive)
COC(=O)C1=C(C(=O)OC)C23CC4CCC2(C(=O)C1O3)C4(C)C (stereo unspecified)	57.1 µM (inactive)
COc1ccc(C(=O)C=C2NCCN2)cc1	> 100 µM (inactive)
CCCCn1cc[n+](-c2nc3ccccc3n2C)c1	> 100 µM (inactive)
O=C(/C=C/c1ccccc1)NC1C=Nc2ccc(Cl)cc2NC1=O (stereo unspecified)	20.8 µM (inactive)
O=C1c2ccccc2C(=O)C1C(c1ccc(F)cc1)C1C(=O)c2ccccc2C1=O	> 100 µM (inactive)
CSCSCC(CO)NC(=O)/C(C)=C\c1c(C)[nH]c(=O)[nH]c1=O (stereo unspecified)	> 250 µM (inactive)
Cc1c(C(=O)C/C(=N/NC(=O)c2ccccc2)C(=O)Nc2ccc(Cl)cc2)[n+]([O-])c2ccccc2[n+]1[O-]	75.7 µM (inactive)
CC[n+]1c(/C=C/c2ccc(N(CCCl)CCCl)cc2)ccc2cc(I)ccc21	1.58 µM (inactive)
COC12OCCN(C)C1=CC(=O)C1=NNC(C)C12 (stereo unspecified)	> 100 µM (inactive)
